Biological target: HIV-1 Env of isolate 93MW959 (subtype C) (HIV-1)
Assay: cell-based or functional assay
Listing: IC50 (µg/mL), pseudovirus neutralization of selected binders
readout name: IC50 (µg/mL), pseudovirus neutralization

1) PGT-127 (antibody, V domains shown) VH: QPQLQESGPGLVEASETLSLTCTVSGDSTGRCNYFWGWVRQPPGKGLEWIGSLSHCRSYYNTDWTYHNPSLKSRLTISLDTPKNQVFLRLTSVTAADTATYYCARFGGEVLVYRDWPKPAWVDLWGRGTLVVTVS VL: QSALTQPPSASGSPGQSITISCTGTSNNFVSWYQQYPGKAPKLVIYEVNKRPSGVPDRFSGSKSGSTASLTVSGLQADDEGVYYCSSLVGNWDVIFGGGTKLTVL : 6.95
2) PGT-123 (antibody, V domains shown) VH: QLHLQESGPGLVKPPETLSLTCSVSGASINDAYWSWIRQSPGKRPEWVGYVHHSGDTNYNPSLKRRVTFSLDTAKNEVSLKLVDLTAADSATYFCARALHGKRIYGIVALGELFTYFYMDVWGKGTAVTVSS VL: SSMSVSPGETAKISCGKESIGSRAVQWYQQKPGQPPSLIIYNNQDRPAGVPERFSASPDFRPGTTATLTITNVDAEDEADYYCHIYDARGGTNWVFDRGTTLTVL : 0.011
3) PGT-125 (antibody, V domains shown) VH: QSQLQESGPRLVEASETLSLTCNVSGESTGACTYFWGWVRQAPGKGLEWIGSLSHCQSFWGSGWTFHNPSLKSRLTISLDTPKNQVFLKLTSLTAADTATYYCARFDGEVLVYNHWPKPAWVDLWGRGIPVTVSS VL: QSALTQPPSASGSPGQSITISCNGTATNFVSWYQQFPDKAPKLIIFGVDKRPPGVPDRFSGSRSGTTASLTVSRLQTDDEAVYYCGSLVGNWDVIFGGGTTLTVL : 37.5
